Task for the reader: assign each of the following compounds its reported normalized growth.
assay: chemical genetic growth profiling, strain panel (AID 1159580);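 note: tested at 20 µM; growth read once vehicle control cultures reached saturation at 30 °C; 1 = growth at the plate median or of vehicle wells; lower values mean less growth of the strain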; conditions: S. cerevisiae deletion strains, growth OD, locus YCL011C, strain gbp2, active compounds read low
Screen size: about 5,500 compounds; about 2,000 (36%) were called active. Inconclusive results (about 18%) are left out. The list shows a part of the results.
Response field accepts a number only; no unit should be typed.

Query: Quick one: normalized growth for CC(=O)O[C@@](C)(CCC=C(C)C)C1CC=C(C)CC1 (stereo partly specified) ?
Response: 0.983

Query: Quick one: normalized growth for CC(C(=O)O)c1ccc2c(c1)[nH]c1ccc(Cl)cc12 (stereo unspecified) ?
Response: 1

Query: Quick one: normalized growth for O=C(O)c1cc(=O)c2ccc(Cl)cc2[nH]1 ?
Response: 1.02

Query: Quick one: normalized growth for CC(=O)CC(=O)CCC(=O)O ?
Response: 1.02

Query: Quick one: normalized growth for COC(=O)C1[C@H]2C[C@H]3c4[nH]c5ccccc5c4CCN3C[C@@H]2CC[C@@H]1O (stereo partly specified) ?
Response: 0.954

Query: Quick one: normalized growth for COc1ccc(-c2cc(=O)c3c(O)cc(OC)c(OC)c3o2)c(OC)c1 ?
Response: 1.01

---

assay: chemical genetic growth profiling, strain panel (AID 1159580);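 note: tested at 20 µM; growth read once vehicle control cultures reached saturation at 30 °C; 1 = growth at the plate median or of vehicle wells; lower values mean less growth of the strain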; settings: S. cerevisiae deletion strains, growth OD, locus YPR167C, strain met16
In all, about 5,500 compounds went through this assay and about 2,000 (36%) were called active. Not shown: some 18% with an inconclusive outcome. Cut-off read from the data, not from the text of the source: active = normalized growth mostly below about 0.91 (no sharp cut-off); inconclusive = no clear call, values can overlap the other calls; inactive = mostly above about 0.92. Some of the results follow.
A correct response names exactly one class from 1 = active, -1 = inactive

Query: Give the logged outcome of this assay for the following molecule: O=C(/C=C/C=C/c1ccc2c(c1)OCO2)N1CCCCC1
Response: -1

Query: Give the logged outcome of this assay for the following molecule: COC(=O)COc1cc(Cl)c(Cl)cc1Cl
Response: -1

Query: Give the logged outcome of this assay for the following molecule: COC(=O)COc1ccc(Cl)cc1Cl
Response: -1

Query: Give the logged outcome of this assay for the following molecule: O=C(O)COc1cc(Cl)c(Cl)cc1Cl
Response: -1

Query: Give the logged outcome of this assay for the following molecule: COc1ccc2c(c1)OC[C@@H](Cc1ccc(OC)c(OC)c1)[C@H]2O
Response: -1

Query: Give the logged outcome of this assay for the following molecule: CC(=O)O[C@H]1C(=O)[C@@]2(C)C([C@H](OC(=O)c3ccccc3)[C@]3(O)C[C@H](OC(=O)[C@H](O)[C@@H](NC(=O)c4ccccc4)c4ccccc4)C(C)=C1C3(C)C)[C@]1(OC(C)=O)CO[C@@H]1C[C@@H]2O (stereo partly specified)
Response: 1

Query: Give the logged outcome of this assay for the following molecule: COc1cc(OC)c2c(c1)OC(c1ccc(OC)c(OC)c1)C(O)C2 (stereo unspecified)
Response: -1

Query: Give the logged outcome of this assay for the following molecule: COc1ccc2c(c1)OC[C@@H](Cc1ccc(OC)c(OC)c1)[C@@H]2O
Response: -1

Query: Give the logged outcome of this assay for the following molecule: CC(=O)[C@H]1CCC2C3C[C@H](C)C4=CC(=O)CC[C@]4(C)C3[C@@H](O)C[C@@]21C (stereo partly specified)
Response: -1

Query: Give the logged outcome of this assay for the following molecule: O=c1ccc2cc(O)c(O)cc2o1
Response: -1

Query: Give the logged outcome of this assay for the following molecule: C1CCc2nnnn2CC1
Response: -1
